Data provenance is patent US20240391871A1.

For each entry below, report its Emax at 10 µM value.
System: L6-myotubes
MEASUREMENT DESCRIPTION: Glucose uptake (3H-2-deoxyglucose) in differentiated L6-myotubes
Type: cell-based
TEST SETTINGS: compound 1×10^−5 M, read-out: Biological example 1: glucose uptake, activity compared to that of isoproterenol
Structures can show the parent of a compound that is named as a salt.

Example compounds with recorded Emax at 10 µM:
| COMPOUND | READOUT TYPE | RESULT |
| --- | --- | --- |
| CO[C@H]1CC[C@H](C[C@H]2CC[C@H]([C@H](O)c3cncc(F)c3)N2)CC1 [Example 11, dihydrochloride] | Emax at 10 µM | > 75% |
| COc1ccc(C[C@@H]2CC[C@H]([C@@H](O)c3cncc(F)c3)N2)cc1 [Example 22, dihydrochloride] | Emax at 10 µM | > 75% |
| CS(=O)(=O)N(Cc1ccccc1)[C@H]1CC[C@H](C[C@@H]2CC[C@H]([C@H](O)c3cccc(F)c3)N2)CC1 [Example 45, hydrochloride] | Emax at 10 µM | < 25% |

Pending compound:
Entry O[C@H](c1cncc(F)c1)[C@H]1CC[C@@H](Cc2ccc(Cl)cc2)N1 [Example 29, dihydrochloride] , Emax at 10 µM reported as > 75%
